# System Tested: Aβ1–42 (Homo sapiens)
# Experiment Summary: Inhibition of Aβ1–42 self-induced aggregation, Thioflavin-T fluorometric assay
# Format: biochemical
# Particulars: read-out: % inhibition of Aβ1–42 aggregation at 10 μM, 10 μM compound
Where a SMILES comes first, the peptide text is derived from it. The star is where a group is joined. Isobutyryl = CC(C)C(=O)*; OAll = C=CCO*
Measurement Kind: inhibition at 10 µM (%)

[
  {
    "Compound": "C=CCOC(=O)[C@H](C)NC(=O)[C@@H]1CCCN1C(=O)CNC(=O)C(C)C [Compound 15, Isobut-Gly-Pro-Ala-O-allyl] (Isobutyryl-Gly-Pro-Ala-OAll)",
    "Readout Relation": ">",
    "Measured": 50
  },
  {
    "Compound": "COc1cc2c(cc1OC)C(=O)C(CC1CCN(Cc3ccccc3)CC1)C2 (centres unmarked) [donepezil, reference compound]",
    "Readout Relation": "=",
    "Measured": 10.9
  },
  {
    "Compound": "CC(C)=CCC/C(C)=C/COC(=O)[C@H](C)NC(=O)[C@@H]1CCCN1C(=O)CNC(=O)C(C)C [Compound 18, Isobut-Gly-Pro-Ala-O-Geranyl]",
    "Readout Relation": "=",
    "Measured": 12.5
  },
  {
    "Compound": "C(=C\\n1nncc1COc1ccc2ccccc2c1-c1c(OCc2cnnn2/C=C/Cc2ccccc2)ccc2ccccc12)/Cc1ccccc1 [Compound 33]",
    "Readout Relation": "=",
    "Measured": 43.2
  },
  {
    "Compound": "COC(=O)[C@H](C)NC(=O)[C@@H]1CCCN1C(=O)CN [Compound 30, NH2-Gly-Pro-Ala-OMe] (H-Gly-Pro-Ala-OMe)",
    "Readout Relation": "=",
    "Measured": 33.7
  }
]

---

pIC50: −log10 of the molar value. Where a SMILES comes first, the peptide text is derived from it. The star is where a group is joined. Isobutyryl = CC(C)C(=O)*; OAll = C=CCO*
As an illustration, consider measured pIC50 for compounds on UniProt:P56817.
Sequence (P56817 46-501): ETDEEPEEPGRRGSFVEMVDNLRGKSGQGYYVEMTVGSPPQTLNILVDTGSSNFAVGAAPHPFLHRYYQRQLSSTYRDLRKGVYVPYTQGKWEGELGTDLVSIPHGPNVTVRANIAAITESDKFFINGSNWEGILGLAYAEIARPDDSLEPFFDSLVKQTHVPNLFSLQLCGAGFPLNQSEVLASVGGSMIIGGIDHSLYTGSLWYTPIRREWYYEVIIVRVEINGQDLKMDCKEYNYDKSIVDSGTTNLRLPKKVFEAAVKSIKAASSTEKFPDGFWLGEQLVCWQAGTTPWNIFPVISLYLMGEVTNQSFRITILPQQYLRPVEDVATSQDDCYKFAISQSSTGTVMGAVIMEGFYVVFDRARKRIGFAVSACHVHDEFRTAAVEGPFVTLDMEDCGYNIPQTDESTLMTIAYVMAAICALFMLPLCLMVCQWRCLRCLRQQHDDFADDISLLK

[
  {
    "Compound": "COC(=O)[C@H](C)NC(=O)[C@@H]1CCCN1C(=O)CNC(=O)C(C)C [Compound 13, Isobut-Gly-Pro-Ala-OMe] (Isobutyryl-Gly-Pro-Ala-OMe)",
    "pIC50": 6.70
  },
  {
    "Compound": "C=CCOC(=O)[C@H](C)NC(=O)[C@@H]1CCCN1C(=O)CNC(=O)C(C)C [Compound 15, Isobut-Gly-Pro-Ala-O-allyl] (Isobutyryl-Gly-Pro-Ala-OAll)",
    "pIC50": 7.30
  },
  {
    "Compound": "C[C@H](NC(=O)[C@@H]1CCCN1C(=O)CNC(=O)OCc1ccccc1)C(=O)OC/C=C/c1ccccc1",
    "pIC50": 7.70
  }
]

---

Overview of reported log10(IC50) across a group of molecules:
# System Tested: Human AChE (Homo sapiens, UniProt P22303)
# Sequence (P22303 32-614): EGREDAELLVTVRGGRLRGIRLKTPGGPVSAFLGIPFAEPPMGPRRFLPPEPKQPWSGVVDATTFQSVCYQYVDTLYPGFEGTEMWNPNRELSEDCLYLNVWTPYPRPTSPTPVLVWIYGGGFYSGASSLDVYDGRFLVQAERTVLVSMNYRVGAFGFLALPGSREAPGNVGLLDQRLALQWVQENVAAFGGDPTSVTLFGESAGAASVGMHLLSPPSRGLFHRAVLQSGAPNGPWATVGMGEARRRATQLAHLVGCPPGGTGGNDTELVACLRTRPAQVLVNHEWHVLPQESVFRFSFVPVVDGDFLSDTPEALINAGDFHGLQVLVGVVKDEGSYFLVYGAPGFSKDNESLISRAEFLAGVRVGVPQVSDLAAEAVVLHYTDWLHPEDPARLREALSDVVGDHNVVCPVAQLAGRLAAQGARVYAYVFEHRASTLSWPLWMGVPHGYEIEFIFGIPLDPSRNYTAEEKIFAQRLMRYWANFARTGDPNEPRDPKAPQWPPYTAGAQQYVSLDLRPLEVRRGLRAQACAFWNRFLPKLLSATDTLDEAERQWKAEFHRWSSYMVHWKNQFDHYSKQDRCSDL
Where a SMILES comes first, the peptide text is derived from it. The star is where a group is joined. Isobutyryl = CC(C)C(=O)*; Cbz = O=C(OCc1ccccc1)*; OAll = C=CCO*
Measurement Kind: log10(IC50) (log10 of the value in µM)

[
  {
    "Molecule": "CC(C)C(=O)NCC(=O)N1CCC[C@H]1C(=O)N[C@@H](C)C(=O)OC/C=C/c1ccccc1",
    "log10(IC50)": -0.05
  },
  {
    "Molecule": "CC(C)=CCOC(=O)[C@H](C)NC(=O)[C@@H]1CCCN1C(=O)CNC(=O)OCc1ccccc1",
    "log10(IC50)": -0.22
  },
  {
    "Molecule": "COC(=O)[C@H](C)NC(=O)[C@@H]1CCCN1C(=O)CNC(=O)OCc1ccccc1 [Compound 21, Cbz-Gly-Pro-Ala-OMe] (Cbz-Gly-Pro-Ala-OMe)",
    "log10(IC50)": 3.00
  },
  {
    "Molecule": "C(=C\\n1nncc1COc1ccc2ccccc2c1-c1c(OCc2cnnn2/C=C/Cc2ccccc2)ccc2ccccc12)/Cc1ccccc1",
    "log10(IC50)": 0.85
  },
  {
    "Molecule": "COC(=O)[C@H](C)NC(=O)[C@@H]1CCCN1C(=O)CNC(=O)C(C)C [Compound 13, Isobut-Gly-Pro-Ala-OMe] (Isobutyryl-Gly-Pro-Ala-OMe)",
    "log10(IC50)": 0.85
  },
  {
    "Molecule": "CC(C)=CCC/C(C)=C/COC(=O)[C@H](C)NC(=O)[C@@H]1CCCN1C(=O)CNC(=O)OCc1ccccc1",
    "log10(IC50)": -0.15
  },
  {
    "Molecule": "C=CCOC(=O)[C@H](C)NC(=O)[C@@H]1CCCN1C(=O)CNC(=O)OCc1ccccc1 [Compound 23, Cbz-Gly-Pro-Ala-O-Allyl] (Cbz-Gly-Pro-Ala-OAll)",
    "log10(IC50)": -0.10
  },
  {
    "Molecule": "COC(=O)[C@H](C)NC(=O)[C@@H]1CCCN1C(=O)CN [Compound 30, NH2-Gly-Pro-Ala-OMe] (H-Gly-Pro-Ala-OMe)",
    "log10(IC50)": 0.30
  }
]

---

# System Tested: Aβ1–42 (Homo sapiens, UniProt P05067)
# Sequence (P05067 672-713): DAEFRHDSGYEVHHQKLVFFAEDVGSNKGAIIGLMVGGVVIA
# Experiment Summary: Inhibition of Aβ1–42 self-induced aggregation, Thioflavin-T fluorometric assay
# Type: biochemical
# Particulars: read-out: % inhibition of Aβ1–42 aggregation at 10 μM, 10 μM compound
Where a SMILES comes first, the peptide text is derived from it. The star is where a group is joined. Isobutyryl = CC(C)C(=O)*
Below is a list of entries, each paired with its recorded inhibition at 10 µM value.

[
  {
    "Compound": "CC(C)=CCC/C(C)=C/COC(=O)[C@H](C)NC(=O)[C@@H]1CCCN1C(=O)CNC(=O)OCc1ccccc1",
    "Unit Info": "%",
    "Readout Relation": "=",
    "inhibition at 10 µM": 31.8
  },
  {
    "Compound": "COC(=O)[C@H](C)NC(=O)[C@@H]1CCCN1C(=O)CNC(=O)C(C)C [Compound 13, Isobut-Gly-Pro-Ala-OMe] (Isobutyryl-Gly-Pro-Ala-OMe)",
    "Unit Info": "%",
    "Readout Relation": "=",
    "inhibition at 10 µM": 36.3
  },
  {
    "Compound": "C[C@H](NC(=O)[C@@H]1CCCN1C(=O)CNC(=O)OCc1ccccc1)C(=O)OC/C=C/c1ccccc1",
    "Unit Info": "%",
    "Readout Relation": ">",
    "inhibition at 10 µM": 50
  }
]

---

pIC50: −log10 of the molar value. Where a SMILES comes first, the peptide text is derived from it. The star is where a group is joined. Isobutyryl = CC(C)C(=O)*; Cbz = O=C(OCc1ccccc1)*; OAll = C=CCO*
This section lists pIC50 readings for Human AChE (Homo sapiens, UniProt P22303).
Measurement Kind: pIC50

[
  {
    "Compound": "CC(C)=CCC/C(C)=C/COC(=O)[C@H](C)NC(=O)[C@@H]1CCCN1C(=O)CNC(=O)C(C)C [Compound 18, Isobut-Gly-Pro-Ala-O-Geranyl]",
    "Measured": 5.15
  },
  {
    "Compound": "C[C@H](NC(=O)[C@@H]1CCCN1C(=O)CNC(=O)OCc1ccccc1)C(=O)OC/C=C/c1ccccc1 [Compound 25, Cbz-Gly-Pro-Ala-O-cinnamyl]",
    "Measured": 6.00
  },
  {
    "Compound": "CC(C)=CCOC(=O)[C@H](C)NC(=O)[C@@H]1CCCN1C(=O)CNC(=O)C(C)C [Compound 16, Isobut-Gly-Pro-Ala-O-dimethylallyl]",
    "Measured": 6.00
  },
  {
    "Compound": "CC(C)C(=O)NCC(=O)N1CCC[C@H]1C(=O)N[C@@H](C)C(=O)O [Compound 14, Isobut-Gly-Pro-Ala-OH] (Isobutyryl-Gly-Pro-Ala-OH)",
    "Measured": 5.10
  },
  {
    "Compound": "C[C@H](NC(=O)[C@@H]1CCCN1C(=O)CNC(=O)OCc1ccccc1)C(=O)O [Compound 22, Cbz-Gly-Pro-Ala-OH] (Cbz-Gly-Pro-Ala-OH)",
    "Measured": 7.00
  },
  {
    "Compound": "C=CCOC(=O)[C@H](C)NC(=O)[C@@H]1CCCN1C(=O)CNC(=O)C(C)C [Compound 15, Isobut-Gly-Pro-Ala-O-allyl] (Isobutyryl-Gly-Pro-Ala-OAll)",
    "Measured": 7.30
  }
]
